Molecular target: human ACC1 (acetyl-coenzyme A carboxylase alpha transcript variant 1) (Homo sapiens, UniProt Q13085)
Construct: FLAG (C); made in house; host or cells: baculovirus-infected insect cells (Hi5)
Experiment: Human ACC1 enzyme assay, Assay B1 (ADP-Glo)
Format: biochemical
Cut-off 600 nM on IC50: below means true, at or above means false.

COMPOUND | ASSIGNED_CATEGORY
Cc1ccc(-c2ccc(Cl)cc2)cc1C1=C(O)C(C)(C2CCCCC2)OC1=O (stereo not drawn) [2-40] | false
Cc1ccc(-c2ccc(Cl)cc2)cc1C1=C(O)C2(CCCOC2)OC1=O (stereo not drawn) [2-9] | false
COC1CCCC2(C1)NC(=O)C(c1c(C)ccc(-c3ccc(Cl)cc3)c1C)=C2O (stereo not drawn) [1-72] | false
O=C1C(c2cc(-c3ccc(Cl)cc3Cl)ccc2Cl)C(=O)N2CCOCCN12 [8-9] | false
Cc1ccc(-c2ccc(Cl)cc2)cc1C1=C(O)CC(C)(C)CC1=O [7-5] | false
Cc1ccc(-c2ccc(Cl)cc2)cc1C1=C(O)C2(CCC3(CC2)OC(C)C(C)O3)NC1=O (stereo not drawn) [1-64] | true
Cc1c(F)cc(-c2ccc(Cl)c(F)c2)cc1C1=C(O)[C@]2(CC[C@H](C(F)(F)F)CC2)NC1=O [1-102] | true
CO[C@H]1CC[C@]2(CC1)NC(=O)C(c1cc(-c3ccc(Cl)cc3)c(F)cc1C)=C2O [1-135] | true
Cc1ccc(-c2ccc(Cl)cc2)c(C)c1C1=C(O)C2(CCC3(CC2)OCCO3)NC1=O [1-70] | true
